Data provenance is PubChem BioAssay AID431.

TEST_SUMMARY: viability loss of HPDE-C7K cells – cell-based, fluorescence, HTS, primary screen (AID 431);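 further: 0% = DMSO solvent wells and 100% = doxorubicin-treated wells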
TEST_SETTINGS: HPDE-C7K KRASV12 cells, Alamar Blue viability, 48 h; at 10 µM; stronger effect = higher value
About 1,100 (1.7%) of roughly 63,000 compounds were called active. For the sample, actives were picked, then their nearest neighbours and some compounds at random. Potency and affinity values are given separately.
cytotoxicity values by entry
Enter your answer as a number in %; do not include the unit.

Record excerpt, results attached:
MOLECULE: Brc1ccc2ncnc(Nc3ccc(N4CCOCC4)cc3)c2c1
cytotoxicity [%]: -4.9

MOLECULE: O=C(CSc1nn(-c2ccccc2)c(=S)s1)Nn1cnnc1
cytotoxicity [%]: -11.8

MOLECULE: COc1ccccc1NC(=O)COc1ccc(C(=O)OCC(=O)N2CCCC2=O)cc1OC
cytotoxicity [%]: -27.1

MOLECULE: Nc1cc(N)cc(-c2nc3ccccc3o2)c1
cytotoxicity [%]: 15.3

MOLECULE: Cc1ccc2[nH]c(=O)c(CN(CCc3ccccc3)C(c3nnnn3Cc3ccco3)C(C)C)cc2c1 (centres undefined)
cytotoxicity [%]: 60.2

MOLECULE: Cc1nc(N)c(C#N)c(-c2ccccc2)c1C
cytotoxicity [%]: 18.7

MOLECULE: Cc1ccc2c(CC(=O)NCc3ccco3)coc2c1C
cytotoxicity [%]: 73.2

MOLECULE: COC(=O)c1ccc(C)c(NC(=O)CN(c2ccc3c(c2)OCO3)S(C)(=O)=O)c1
cytotoxicity [%]: -3.2

MOLECULE: COc1cccc(-n2ccnc2SCC(=O)Nc2nccs2)c1
cytotoxicity [%]: -7.9

MOLECULE: COc1ccc2cc(CN(CCc3ccccc3)Cc3nnnn3Cc3ccco3)c(=O)[nH]c2c1
cytotoxicity [%]: 33.5

// query What does the record list as cytotoxicity for Nc1nc(F)nc2c1ncn2[C@@H]1O[C@H](CO)[C@@H](O)[C@@H]1O ?
// result 42.7

// query What does the record list as cytotoxicity for COC(=O)c1ccc(C)c(NS(=O)(=O)c2ccc3c(c2)OCCO3)c1 ?
// result 59.3

// query What does the record list as cytotoxicity for Fc1ccc(-c2cc3nc(-c4ccccc4)cc(N4CCN(CCN5CCOCC5)CC4)n3n2)cc1 ?
// result 44.9

// query What does the record list as cytotoxicity for Cc1cc(C)cc(N2C(=O)CC(N3CCOCC3)C2=O)c1 (centres undefined) ?
// result 1.2

// query What does the record list as cytotoxicity for Cc1c(-c2ccccc2)nc(N)c(C#N)c1-c1ccco1 ?
// result -7.4

// query What does the record list as cytotoxicity for OC[C@H]1O[C@@H](n2cnc3c(Nc4ccccc4)ncnc32)[C@H](O)[C@@H]1O ?
// result 62.3

// query What does the record list as cytotoxicity for CN1CCCC(OC(=O)c2cc(Cl)ccc2Cl)C1 (centres undefined) ?
// result -23.9

// query What does the record list as cytotoxicity for Cc1cc(C)c2c(CC(=O)NCc3ccco3)coc2c1 ?
// result 5.6

// query What does the record list as cytotoxicity for Nc1ccc(-c2nc3ccccc3[nH]2)cc1 ?
// result -4.1

// query What does the record list as cytotoxicity for Cc1cc(C)nc(SCc2nnc(SCC(=O)N3CCOCC3)o2)n1 ?
// result 4.2

// query What does the record list as cytotoxicity for Nc1ccc(-c2nc3ccc(-c4nc5ccccc5o4)cc3[nH]2)cc1 ?
// result 66.5

// query What does the record list as cytotoxicity for COC(=O)c1c(-c2cccs2)csc1NC(=O)CN1CCOCC1 ?
// result 4.8
